# target-or-system: KMT9 (Homo sapiens, UniProt Q9Y5N5)
# Sequence (Q9Y5N5 whole entry): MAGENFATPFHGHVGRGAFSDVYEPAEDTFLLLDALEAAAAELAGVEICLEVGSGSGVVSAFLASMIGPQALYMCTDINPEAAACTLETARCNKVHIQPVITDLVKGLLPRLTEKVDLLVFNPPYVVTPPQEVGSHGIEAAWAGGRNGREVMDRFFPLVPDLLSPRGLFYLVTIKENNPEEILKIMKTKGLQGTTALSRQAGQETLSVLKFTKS
# Sequence (Q9UI30 1-120 isoform Q9UI30-2 partner): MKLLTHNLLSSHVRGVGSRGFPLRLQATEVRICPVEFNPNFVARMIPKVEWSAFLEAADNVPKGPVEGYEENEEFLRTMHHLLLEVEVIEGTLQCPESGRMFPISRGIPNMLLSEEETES
# protocol: Microscale thermophoresis (MST) KMT9 binding
# conditions: His-tag labelled KMT9 20 nM; Kd class; read-out: MST
# Description: To determine the binding affinity of the compounds according to the present invention and KMT9, microscale thermophoresis (MST) analysis was performed with a NanoTemper Monolith NT.115 instrument (NanoTemper Technologies GmbH). KMT9 was labelled with a RED-Tris-NTA labelling kit (NanoTemper Technologies GmbH) based on the manufacturer's instructions. Buffer including 25 mM HEPES (pH 7.5), 100 mM NaCl, 1 mM DTT and 0.05% Tween was used for the reaction buffer. […]
As shown below, each of these compounds has a reported Kd value.

Check out these entries, answers already filled in.
| compound-smiles | experimental-endpoint | recorded-measurement |
| --- | --- | --- |
| O[C@@H]1[C@@H](CNCCCNCCc2ccc(F)cc2)C[C@@H](n2cc(-c3cc(Cc4ccccc4)cs3)c3cncnc32)[C@@H]1O | Kd | 100 to 1000 nM |
| CN(CCCNCCc1ccc(F)cc1)C[C@H]1C[C@@H](n2cc(-c3ccn(C)n3)c3cnc(Cl)nc32)[C@H](O)[C@@H]1O | Kd | > 1000 nM |

Reported Kd ( CN(CCCNCCc1ccc(F)cc1)C[C@H]1C[C@@H](n2cc(-c3ccn(Cc4ccccc4)n3)c3cnc(Cl)nc32)[C@H](O)[C@@H]1O ) = 10 to 100 nM
